Entry source: patent US4376119A

Experiment: in vivo
Details: mouse, in vivo, po
Here the recorded LD50 at 168 h is given for each entry.
Express your answer in mg/kg, writing the number without its unit.

Study these solved cases before continuing.
- compound: "CN1C(C(=O)Nc2ccccn2)C(=O)c2ccccc2S1(=O)=O (stereo not shown)"
  measured value: 490
- compound: "CN1C(C(=O)Nc2nccs2)C(=O)c2ccccc2S1(=O)=O (stereo not shown)"
  measured value: 500

Turning now to a further record.
Form field: reported LD50 at 168 h of Cc1cc(NC(=O)C2C(=O)c3ccccc3S(=O)(=O)N2C)no1 (stereo not shown)
5000

###

Here the recorded TD50 at 6 h is given for each entry.
Assay: Incidence of gastric disorders (erosion) in rats
Settings: rat, in vivo, po
Express your answer in mg/kg, writing the number without its unit.

Study these solved cases before continuing.
- compound: "COc1ccc2c(c1)c(CC(=O)O)c(C)n2C(=O)c1ccc(Cl)cc1"
  TD50 at 6 h / mg/kg: 5.4
- compound: "CN1C(C(=O)Nc2nccs2)C(=O)c2ccccc2S1(=O)=O (stereo not shown)"
  TD50 at 6 h / mg/kg: 11.8
- compound: "CN1C(C(=O)Nc2cccc(F)n2)C(=O)c2ccccc2S1(=O)=O (stereo not shown)"
  TD50 at 6 h / mg/kg: 297
- compound: "Cc1cccc(NC(=O)C2C(=O)c3ccccc3S(=O)(=O)N2C)n1 (stereo not shown)"
  TD50 at 6 h / mg/kg: 5.1
- compound: "Cc1cc(NC(=O)C2C(=O)c3ccccc3S(=O)(=O)N2C)no1 (stereo not shown)"
  TD50 at 6 h / mg/kg: 250

Form field: reported TD50 at 6 h of CN1C(C(=O)Nc2ccccn2)C(=O)c2ccccc2S1(=O)=O (stereo not shown)
8.2

Form field: reported TD50 at 6 h of O=C(O)Cc1ccccc1Nc1c(Cl)cccc1Cl
9.2
